# measured target: protein-protein interaction between Kras and SOS1 (biotin-tagged human Kras loaded with GDP, His-tagged human SOS1) (Homo sapiens (Human), UniProt P01116, G12D)
# experiment description: Protein-protein interaction inhibition between Kras and SOS1 (KrasG12D-SOS PPI) using AlphaScreen;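 also: kras produced in E. coli, Ni-coupled donor beads and streptavidin acceptor beads, excitation 680 nm with emission detected at 520–620 nm via singlet oxygen transfer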
# Type: biochemical
# test parameters: AlphaScreen; biotin-tagged human Kras loaded with GDP, His-tagged human SOS1; read-out: KRAS G12D-SOS PPI IC50
pIC50: −log10 of the molar value. Numbered stars: 1 amine (or outer) side, 2 acyl side, 3 side chain; on linkers, the order of the positions; unused ones are H or OH. Bridge positions count the residues as written; N and C are the ends. Square brackets hold non-standard residues; d marks the D form. Peptide text beside a SMILES is read from it. * marks the point of attachment. hPhe(3,5-F2-4-CF3) = N[C@@H](CCc1cc(F)c(C(F)(F)F)c(F)c1)C(=O)O; hPhe(3-Cl-4-CF3) = N[C@@H](CCc1ccc(C(F)(F)F)c(Cl)c1)C(=O)O; NEtPhe(4-CF3) = CCN[C@@H](Cc1ccc(C(F)(F)F)cc1)C(=O)O; 3Oxa8azabicyclo(3.2.1)octane = C1CC2COCC1N2*; NMedβ3hAla = C[C@H](CC(=O)[*:2])N(C)[*:1]; NMeGly(cPent) = CN[C@H](C(=O)O)C1CCCC1; Pro(4,4-F2) = O=C(O)[C@@H]1CC(F)(F)CN1; NMeCha = CN[C@@H](CC1CCCCC1)C(=O)O; Hyp = O=C(O)[C@@H]1C[C@@H](O)CN1; NMeAhp(2) = CCCCC[C@H](NC)C(=O)O; NMeChg = CN[C@H](C(=O)O)C1CCCCC1; NMeD = CN[C@@H](CC(=O)O)C(=O)O; NMeL = CN[C@@H](CC(C)C)C(=O)O; dNMeS = CN[C@H](CO)C(=O)O; Morpholide = C1CN(*)CCO1; NMeA = CN[C@@H](C)C(=O)O; Piperidide = C1CCN(*)CC1; Ac5c = NC1(C(=O)O)CCCC1; Aze = O=C(O)[C@@H]1CCN1; Ac4c = NC1(C(=O)O)CCC1; Isopentyl = CC(C)CC*; Sar = CNCC(=O)O
Let's look at some compounds and their measured pIC50.
recorded metric: pIC50

{"compound": "CCCCC[C@H]1C(=O)N[C@@H]([C@@H](C)CC)C(=O)N[C@@H](C)C(=O)N2CC[C@H]2C(=O)N(C)[C@@H](CC2CCCCC2)C(=O)N(C)CC(=O)N[C@@H](CCc2ccc(C(F)(F)F)c(Cl)c2)C(=O)N2CCC[C@H]2C(=O)NC2(CCCC2)C(=O)N(C)[C@@H](C2CCCC2)C(=O)N(C)[C@H](C(=O)N2CCOCC2)CC(=O)N1C [Compound 263] ([NMeAhp(2)]IA[Aze][NMeCha][Sar][hPhe(3-Cl-4-CF3)]P[Ac5c][NMeGly(cPent)][NMeD]-Morpholide; lactam N-11)", "recorded metric": "pIC50", "value observed": 8.54}
{"compound": "CC[C@H](C)[C@@H]1NC(=O)[C@H](CC(C)C)N(C)C(=O)C[C@@H](C(=O)N2CCCCC2)N(C)C(=O)[C@H](C2CCCCC2)N(C)C(=O)C2(CCCC2)NC(=O)[C@@H](COCCC(C)C)N(C)C(=O)[C@H](CCc2ccc(C(F)(F)F)c(Cl)c2)NC(=O)CN(C)C(=O)[C@H](CC2CCCCC2)N(C)C(=O)CN(C)C(=O)CN(C)C1=O [Compound 1436] ([NMeL]I[Sar][Sar][NMeCha][Sar][hPhe(3-Cl-4-CF3)][dNMeS](Isopentyl)[Ac5c][NMeChg][NMeD]-Piperidide; lactam N-11)", "recorded metric": "pIC50", "value observed": 7.41}
{"compound": "CCO[C@@H]1C[C@H]2C(=O)NC3(CCCC3)C(=O)N(C)[C@@H](C3CCCCC3)C(=O)N(C)[C@H](C(=O)N3C4CCC3COC4)CC(=O)N(C)[C@@H](CC(C)C)C(=O)N[C@@H]([C@@H](C)CC)C(=O)N(C)CC(=O)N(C)CC(=O)N(C)[C@@H](CC3CCCCC3)C(=O)N(C)CC(=O)N[C@@H](CCc3ccc(C(F)(F)F)c(Cl)c3)C(=O)N2C1 [Compound 1977] ([NMeL]I[Sar][Sar][NMeCha][Sar][hPhe(3-Cl-4-CF3)][Hyp](Et)[Ac5c][NMeChg][NMeD]-{3Oxa8azabicyclo(3.2.1)octane}; lactam N-11)", "recorded metric": "pIC50", "value observed": 9.33}
{"compound": "CC[C@H](C)[C@@H]1NC(=O)[C@H](CC(C)C)N(C)C(=O)C[C@@H](C)N(C)C(=O)[C@H](C2CCCCC2)N(C)C(=O)C2(CCC2)NC(=O)[C@@H]2CC(F)(F)CN2C(=O)[C@H](CCc2cc(F)c(C(F)(F)F)c(F)c2)NC(=O)CN(C)C(=O)[C@H](Cc2ccc(C(F)(F)F)cc2)N(CC)C(=O)[C@@H]2CCN2C(=O)[C@H](C)N(C)C1=O [Compound 377] (cyclo([Ac4c][NMeChg][NMedβ3hAla][NMeL]I[NMeA][Aze][NEtPhe(4-CF3)][Sar][hPhe(3,5-F2-4-CF3)][Pro(4,4-F2)]))", "recorded metric": "pIC50", "value observed": 7.62}
